# test: Single 100 mg dose PK in SCD subjects
# Format: in vivo, human
# experimental_conditions: human, plasma, 100 mg, SCD subjects n=6, single 100 mg; geometric mean
outcome_measure: Cmax (ng/mL)
Note: unit ng/mL is implicit; provide only the numeric part.

Challenge: Quick check: Cmax of "O=Cc1c(O)cccc1OC[C@@H]1COCCN1C(=O)c1cccnc1CCO" ?
Response given: 1010

###

# test: SAD study in healthy volunteers: PK in plasma, whole blood, red blood cells
# Assay type: in vivo, human
# experimental_conditions: human; HV single oral 50 mg (Cohort 1); plasma; geometric mean
outcome_measure: AUC(0-inf) (ng·h/mL)
I only need the number, in ng·h/mL, no unit after it.

Challenge: # AUC(0-inf) lookup, item "O=Cc1c(O)cccc1OC[C@@H]1COCCN1C(=O)c1cccnc1CCO"
Response given: 34200
